Test system: MRSA
experiment: Kill or inhibit growth/proliferation; morphology, biofilm and growth disruption (Tables 5, 6); further: test concentration or dose not given here
Type: cell-based, Methicillin-resistant Staphylococcus aureus
Parameters: key: A: Peptide aggregates; B: Less hyphal formation; Clumps; Diffuse clumps and small polyps; F: Diffuse growth; H: Thin; I: Growth inhibition; Microcolony formation; Rippled; Small polyps; Thick; W: Halo formation on top, microlonies on bottom

substance: PF-065: peptide having multiple activities (LEKNTRDNYFIHAIDRIYINTSKGLFPESELVAWG; Peptide with targeting and/or antimicrobial activity)
Organism, effect: MRSA (R)
--
substance: PF-043: peptide having multiple activities (chain 1 MIKNETAYQMNELLVIRSAYAK; chain 2 MIKNETAYQMNELLVIRSAYAK; Peptide with targeting and/or antimicrobial activity)
Organism, effect: MRSA (R)

###

Test system: E. faecalis
experiment: Kill or inhibit growth/proliferation; morphology, biofilm and growth disruption (Tables 5, 6); further: test concentration or dose not given here
Format: cell-based, Enterococcus faecalis
Set-up: key: A: Peptide aggregates; B: Less hyphal formation; Clumps; Diffuse clumps and small polyps; F: Diffuse growth; H: Thin; I: Growth inhibition; Microcolony formation; Rippled; Small polyps; Thick; W: Halo formation on top, microlonies on bottom
readout_kind: Organism, effect (morphology, biofilm and growth disruption)

Guide cases for Organism, effect (morphology, biofilm and growth disruption), answers given:
substance: PF-675 (chain 1 EIIPISPTRRCEMHTMSSAEYRGL; chain 2 EIIPISPTRRCEMHTMSSAEYRGL; Peptide with targeting and/or antimicrobial activity)
result: E. faecalis (R)

substance: PF-681: peptide having multiple activities (chain 1 TALTTVGVSGARLITYCVGVEDI; chain 2 TALTTVGVSGARLITYCVGVEDI; Peptide with targeting and/or antimicrobial activity)
result: E. faecalis (R)

substance: PF-684 (chain 1 RKLSLASGFALWRRSLV; chain 2 RKLSLASGFALWRRSLV; Peptide with targeting and/or antimicrobial activity)
result: E. faecalis (A)

substance: PF-698 (chain 1 SSGRAGVKCRRPTGR; chain 2 SSGRAGVKCRRPTGR; Peptide with targeting and/or antimicrobial activity)
result: E. faecalis (A)

substance: PF-668 (chain 1 TNAESMALAFRGRVHMSVNIAGLT; chain 2 TNAESMALAFRGRVHMSVNIAGLT; Peptide with targeting and/or antimicrobial activity)
result: E. faecalis (D)

substance: PF-695 (chain 1 ALSVMLGNIPLVVPNANQL; chain 2 ALSVMLGNIPLVVPNANQL; Peptide with targeting and/or antimicrobial activity)
result: E. faecalis (R)

substance: PF-686: peptide having multiple activities (chain 1 LAVLMGYIGYRGWSGKRHINRQ; chain 2 LAVLMGYIGYRGWSGKRHINRQ; Peptide with targeting and/or antimicrobial activity)
result: E. faecalis (R)

substance: PF-664: peptide having multiple activities (chain 1 DQLCVEYPARVSTG; chain 2 DQLCVEYPARVSTG; Peptide with targeting and/or antimicrobial activity)
result: E. faecalis (R)

Please report Organism, effect (morphology, biofilm and growth disruption) for every entry that follows.
1. PF-685 (chain 1 PTLWLACL; chain 2 PTLWLACL; Peptide with targeting and/or antimicrobial activity)
2. PF-657 (chain 1 YVANYTITQFGRDFDDRLAVAIHFA; chain 2 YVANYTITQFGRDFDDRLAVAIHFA; Peptide with targeting and/or antimicrobial activity)

Reply:
1: E. faecalis (R); 2: E. faecalis (D)

###

Tested on: microorganisms (e.g., bacteria, yeasts, fungi)
experiment: Targeting peptide binding to target microorganisms (Table 3)
test_parameters: peptide binding in aqueous buffers varied by peptide solubility; preferably 1x PBS
readout_kind: Target(s) (microorganisms bound by the targeting peptide)

substance: PF-665 (chain 1 VLRVATAVGEVPTGL; chain 2 VLRVATAVGEVPTGL; Peptide with targeting and/or antimicrobial activity)
result: Mycobacteria spp
//
substance: PF-677 (chain 1 TCRGAGMH; chain 2 TCRGAGMH; Peptide with targeting and/or antimicrobial activity)
result: Mycobacteria spp
//
substance: PF-684 (chain 1 RKLSLASGFALWRRSLV; chain 2 RKLSLASGFALWRRSLV; Peptide with targeting and/or antimicrobial activity)
result: Mycobacteria spp

###

System: microorganisms (e.g., bacteria, yeasts, fungi)
experiment: Targeting peptide binding to target microorganisms (Table 3)
test_parameters: microorganism the targeting peptide binds; binding in aqueous buffers varied by peptide solubility, preferably 1x PBS
readout_kind: Target(s)

Guide cases for Target(s), answers given:
substance: 1T-83 (QKPRKNETFIGYIQRYDIDGNGYQSLPCPQN; Peptide with targeting and/or antimicrobial activity) [Peptide 1T-83]
result: S. pneumoniae
//
substance: 1T-79 (FGTPWSITNFWKKNFNDRPDFDSDRRRY; Peptide with targeting and/or antimicrobial activity) [Peptide 1T-79]
result: S. pneumoniae
//
substance: 1T-8 (FSVAACGEQRAVTFVLLIEDLI; Peptide with targeting and/or antimicrobial activity) [Peptide 1T-8]
result: M. xanthus
//
substance: 1T-266 (RAGTWLVVDEIR; Peptide with targeting and/or antimicrobial activity) [Peptide 1T-266]
result: S. sanguinis

Return reported Target(s) values for all items listed beneath this line.
1. 1T-7 (SQRIIEPVKSPQPYPGFSVS; Peptide with targeting and/or antimicrobial activity) [Peptide 1T-7]
2. 1T-199 (RAGRIKKLSQKEAEPFEN; Peptide with targeting and/or antimicrobial activity) [Peptide 1T-199]
3. 1T-6 (KFINGVLSQFVLERK; Peptide with targeting and/or antimicrobial activity) [Peptide 1T-6]
4. 1T-117 (GPGVVGPAPFSRLPAHALNL; Peptide with targeting and/or antimicrobial activity) [Peptide 1T-117]

Reply:
["M. xanthus", "S. sanguinis", "S. mutans", "S. mutans"]

###

Test system: microorganisms (e.g., bacteria, yeasts, fungi)
experiment: Targeting peptide binding to target microorganisms (Table 3)
test_parameters: peptide binding in aqueous buffers varied by peptide solubility; preferably 1x PBS
readout_kind: Target(s) (microorganisms bound by the targeting peptide)

Look over these answered cases.
substance: PF-675 (chain 1 EIIPISPTRRCEMHTMSSAEYRGL; chain 2 EIIPISPTRRCEMHTMSSAEYRGL; Peptide with targeting and/or antimicrobial activity)
measurement_target: microorganisms (e.g., bacteria, yeasts, fungi)
result: Mycobacteria spp
--
substance: PF-786 (LSERERRRLKRGII; Peptide with targeting and/or antimicrobial activity)
measurement_target: microorganisms (e.g., bacteria, yeasts, fungi)
result: Mycobacteria spp.
--
substance: PF-669 (RADRIESYPADGDRVITLWRNPYR; Peptide with targeting and/or antimicrobial activity)
measurement_target: microorganisms (e.g., bacteria, yeasts, fungi)
result: Mycobacteria spp
--
substance: PF-782 (TGPRRGIDLTSNRALSEVLDEGLELNSRK; Peptide with targeting and/or antimicrobial activity)
measurement_target: microorganisms (e.g., bacteria, yeasts, fungi)
result: Mycobacteria spp.
--
substance: PF-687 (chain 1 AKRVLSLAVAPHRRQPVQGT; chain 2 AKRVLSLAVAPHRRQPVQGT; Peptide with targeting and/or antimicrobial activity)
measurement_target: microorganisms (e.g., bacteria, yeasts, fungi)
result: Mycobacteria spp

Read the next record carefully.
Query: Need Target(s) (microorganisms bound by the targeting peptide), item PF-661 (chain 1 PDEDIRRRAILPPAGPCRPMSPE; chain 2 PDEDIRRRAILPPAGPCRPMSPE; Peptide with targeting and/or antimicrobial activity)
Reply: Mycobacteria spp

###

Test system: MRSA
experiment: Kill or inhibit growth/proliferation; morphology, biofilm and growth disruption (Tables 5, 6); further: test concentration or dose not given here
Assay type: cell-based, Methicillin-resistant Staphylococcus aureus
Set-up: key: A: Peptide aggregates; B: Less hyphal formation; Clumps; Diffuse clumps and small polyps; F: Diffuse growth; H: Thin; I: Growth inhibition; Microcolony formation; Rippled; Small polyps; Thick; W: Halo formation on top, microlonies on bottom
readout_kind: Organism, effect

substance: PF-405: peptide having multiple activities (LVRIEVDDLEEWYERNFI; Peptide with targeting and/or antimicrobial activity)
result: MRSA (M)

substance: PF-556: peptide having multiple activities (chain 1 SLQIRMNTLTAAKASIEAA; chain 2 SLQIRMNTLTAAKASIEAA; Peptide with targeting and/or antimicrobial activity)
result: MRSA (M)

substance: PF-064: peptide having multiple activities (chain 1 DYYGKE; chain 2 DYYGKE; Peptide with targeting and/or antimicrobial activity)
result: MRSA (M)

###

System: C. jejuni
experiment: Kill or inhibit growth/proliferation; morphology, biofilm and growth disruption (Tables 5, 6); further: test concentration or dose not given here
Format: cell-based, Campylobacter jejuni
Parameters: key: A: Peptide aggregates; B: Less hyphal formation; Clumps; Diffuse clumps and small polyps; F: Diffuse growth; H: Thin; I: Growth inhibition; Microcolony formation; Rippled; Small polyps; Thick; W: Halo formation on top, microlonies on bottom
readout_kind: Organism, effect

substance: PF-605: peptide having multiple activities (HYRWNTQWWKY; Peptide with targeting and/or antimicrobial activity)
Organism, effect: C. jejuni (R)

substance: PF-411: peptide having multiple activities (WVAVAILLNIALQTQLT; Peptide with targeting and/or antimicrobial activity)
Organism, effect: C. jejuni (D)

substance: PF-171: peptide having multiple activities (TQVTLCRTW; Peptide with targeting and/or antimicrobial activity)
Organism, effect: C. jejuni (R)

substance: PF-431: peptide having multiple activities (VAYAAICWW; Peptide with targeting and/or antimicrobial activity)
Organism, effect: C. jejuni (R)

Query: Form field: reported Organism, effect of PF-615: peptide having multiple activities (FLNRFIFYIFTVKTKSALIKNLFLD; Peptide with targeting and/or antimicrobial activity)
Reply: C. jejuni (D)
